Attribution: patent US10093660B2

Biological target: MNK2a (Homo sapiens (Human), UniProt Q9HBH9)
Sequence (Q9HBH9 whole entry): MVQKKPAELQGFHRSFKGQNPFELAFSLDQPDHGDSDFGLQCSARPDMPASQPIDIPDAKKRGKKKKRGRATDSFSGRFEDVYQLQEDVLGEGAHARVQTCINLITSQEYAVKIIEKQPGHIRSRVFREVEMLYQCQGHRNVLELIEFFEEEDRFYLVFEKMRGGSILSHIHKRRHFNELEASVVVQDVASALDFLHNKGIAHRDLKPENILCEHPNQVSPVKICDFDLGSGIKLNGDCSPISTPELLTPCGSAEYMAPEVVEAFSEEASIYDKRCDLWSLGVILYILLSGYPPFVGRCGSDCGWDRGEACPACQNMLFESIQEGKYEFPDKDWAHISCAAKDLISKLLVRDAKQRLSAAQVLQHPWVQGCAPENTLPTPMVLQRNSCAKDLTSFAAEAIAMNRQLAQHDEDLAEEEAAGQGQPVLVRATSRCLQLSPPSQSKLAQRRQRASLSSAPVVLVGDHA
Assay: MNK2a in vitro kinase assay (Assay 2), ADP-Glo
Assay type: biochemical
VALUE KIND: pIC50
// pIC50 here means minus log10 of the molar concentration (mol/L)

Q. Reported pIC50, compound CO[C@@H]1COC[C@@H]1Oc1cc(F)ccc1Nc1ncnc2cc(N=S(C)(C)=O)cc(C)c12 (racemic) : ____
A. 8.40

----------
Molecular target: MNK1a (Homo sapiens (Human))
Sequence (Q9BUB5 other isoform, or with tags, fused parts or gaps): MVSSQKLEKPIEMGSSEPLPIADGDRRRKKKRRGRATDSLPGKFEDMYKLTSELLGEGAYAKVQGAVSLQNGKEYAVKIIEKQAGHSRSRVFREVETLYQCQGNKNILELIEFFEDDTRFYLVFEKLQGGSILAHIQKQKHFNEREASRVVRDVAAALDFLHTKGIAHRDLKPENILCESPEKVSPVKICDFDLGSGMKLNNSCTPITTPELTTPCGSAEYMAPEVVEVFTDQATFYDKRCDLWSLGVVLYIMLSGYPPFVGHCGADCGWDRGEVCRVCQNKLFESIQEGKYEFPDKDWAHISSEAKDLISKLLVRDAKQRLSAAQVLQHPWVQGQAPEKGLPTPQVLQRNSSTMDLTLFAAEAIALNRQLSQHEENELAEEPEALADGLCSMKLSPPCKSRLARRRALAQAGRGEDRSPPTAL
Assay: MNK1 in vitro kinase assay (Assay 3), Z'-LYTE
Type: biochemical
Conditions: compound concentration of 1 μM, read-out: MNK1 % INH
Reported inhibition at 1 µM values for a set of compounds
Value and unit, in that order.

COMPOUND	RESULT
COc1cc(N=S(C)(=O)C(C)C)cc2ncnc(Nc3ccc(F)cc3O[C@H]3COC[C@@H]3O)c12 (stereo partly shown) [Example 9.9]	94%
Cc1cc(N=S(C)(=O)C2CC2)cc2ncnc(Nc3ccc(F)cc3O[C@H]3COC[C@@H]3O)c12 (stereo partly shown) [Example 2.77]	94%
CO[C@@H]1CN(CC(F)F)C[C@H]1Oc1cc(F)ccc1Nc1ncnc2cc(N=S(C)(C)=O)cc(C)c12 [Example 5.4]	35%

We next turn to a different compound, shown below.
Q. Record lookup: for MNK1a (Homo sapiens (Human)), what inhibition at 1 µM belongs to CS(C)(=O)=Nc1cc(Cl)c2c(Nc3ccc(F)cc3O[C@@H]3COC[C@H]3O)ncnc2c1 [Example 1.26] ?
A. 99%
